Sourced from PubChem BioAssay

Recorded composite z-score, one value per entry.
# procedureDetails: binders of probe aFGF2 on microarray, primary screen, stem cell growth factor project, biochemical, small-molecule microarray, fluorescence 635/667 (AID 1067);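 note: measures binding of biotinylated aFGF2 protein to printed compounds on slides; z-score merges feature fluorescence and signal-to-noise across triplicate slides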
# assayConditions: higher = more signal
quantityName: composite z-score

CN1CCC(CCCO)=CC1c1ccc(CN2CCCC2)cc1 (stereo not given) = 0.0626
CC(C)C[C@@H]1NC(=O)[C@@H]2C[C@H](C(=O)NCCCCCC[N+](C)(C)C)[C@H](c3ccc(O)cc3)N2C1=O = -0.112
O=C1OCC=C[C@H]2OC34C=CCN(c5ccc(Cl)cc5)C(=O)[C@H]3N(CCCCCCO)C(=O)[C@@H]4[C@@H]12 (stereo not given in full) = -0.163
COCC(=C=CC[C@@H](O)c1ccc(CO)o1)CCO = -0.188
O=c1cccc(CCc2ccccc2)o1 = -0.0909
